# key: entry, value: % Cell Death
test: MMV: MTT Cytotoxicity Assay Day 3 pi, U87-CD4-CCR5 cells, % cell death @ 5mM compound; assay type: toxicity, cell-based; details: human, u87-cd4-ccr5, 5000 µM
Lab note: jot down the number only; don't add units.

>>> value("COc1cccc(-c2nn(C)c3sc(C(=O)NCCN4CCN(c5ccccc5F)CC4)cc23)c1")
21

Data point: CCOc1cc2c(cc1OCC)C(c1cc(C)c(O)c(C)c1)NCC2.Cl (stereo unspecified) ; % Cell Death = 4

Data point: Nc1ccc(-c2nc3cc(Cc4ccc5[nH]c(-c6ccc(N)cc6)nc5c4)ccc3[nH]2)cc1 ; % Cell Death = 88

Data point: O=C(Nc1ccc(CN2CCOCC2)cc1)c1ccc(-c2cc(Cl)ccc2Cl)o1 ; % Cell Death = -2

Data point: CCOC(=O)c1cnc2ccc(CC)cc2c1O ; % Cell Death = 1

Data point: Clc1ccc2[nH]c3c(NCCCN4CCOCC4)ncnc3c2c1 ; % Cell Death = 110

Data point: Cc1cc(C)cc(Nc2cc(C)nc3nc(C(F)(F)F)nn23)c1 ; % Cell Death = 10

Data point: COCCNC(=O)c1ccc(OC2CCN(Cc3ccc(F)c(F)c3)CC2)c(Cl)c1 ; % Cell Death = 31

Data point: CCOc1cc2c(cc1OCC)C(c1cc(Cl)c(O)c(OCC)c1)NCC2 (stereo unspecified) ; % Cell Death = -45

Data point: Cc1cc(NC(=O)c2cccc(C(F)(F)F)c2)n(-c2nc(-c3ccc4c(c3)OCO4)cs2)n1 ; % Cell Death = 40

Data point: CCCCN(CCCC)S(=O)(=O)c1ccc(NC(=O)c2ccco2)cc1 ; % Cell Death = 58
